Origin of values: patent US20060063930A1

Tested on: PAR-2
Test: Inhibition of PAR-2 activating peptide (AP2) calcium signaling in cells pretreated with antagonist
Type: cell-based, human
Set-up: key: AUC of calcium mobilization, treated ÷ control wells
Conditions: mimetic antagonists; AUC of calcium mobilization treated/control; initially screened at 1 mM compound
Where a name gives a salt, the structure may show the parent alone.
Please provide measured PAR-2 AP2 Signaling Treated/Control for the entries that follow.

Report PAR-2 AP2 Signaling Treated/Control for NCCCCCC(=O)N1CCOC(C(=O)NCC2CCCCC2)C1 (centres unmarked) please. 0.54

Fill in the blank: the reported PAR-2 AP2 Signaling Treated/Control of NCCCCNC(=O)c1cnc(NCC2CCCCC2)cn1 is ____. 0.81

Which PAR-2 AP2 Signaling Treated/Control reading was recorded for the compound NCCCCCCn1c(=O)n(CCC2CCCCC2)c2ccccc21 ? 0.58

State the recorded PAR-2 AP2 Signaling Treated/Control for this entry: CC(C)CC(=O)NCCNC(=O)Cc1ccc(N)cc1.Cl 0.48

Which PAR-2 AP2 Signaling Treated/Control is listed for Cl.O=C(CC1CCCCC1)N1CCN(C(=O)C2CNCCO2)CC1 (centres unmarked) ? 0.86

Which PAR-2 AP2 Signaling Treated/Control value is on record for CC(C)CCNC(=O)C1CCS(=O)(=O)N1CCCCCCN (centres unmarked) ? 0.97

Using the record for NCCCCCC(=O)N1CC(NC(=O)CC2CCCCC2)C1 , report its PAR-2 AP2 Signaling Treated/Control. 0.53

Item under review: Cl.N[C@H]1CC[C@H](C(=O)N2CCN(C(=O)CC3CCCCC3)CC2)C1 . Reported PAR-2 AP2 Signaling Treated/Control? 0.89

Request the reported PAR-2 AP2 Signaling Treated/Control associated with Cl.O=C(CC1CCCCC1)N1CCN(C(=O)C2CCCNC2)CC1 (centres unmarked) 0.85

Consider the compound CC(C)CNC(=O)c1ccc(-c2ccc(NC(=O)CCCCCN(C)C)cc2)cc1 and give its measured PAR-2 AP2 Signaling Treated/Control. 0.35

Return reported PAR-2 AP2 Signaling Treated/Control; argument: CC(C)Nc1ccc(CCn2c(=O)n(CCC3CCCCC3)c3ccccc32)cc1 1.16

Requested field: PAR-2 AP2 Signaling Treated/Control. Item: CC(C)CCn1c(=O)n(CCc2ccc(N)cc2)c2ccccc21 0.01

Given O=C(Cc1cn(CCCCN2C(=O)c3ccccc3C2=O)cn1)NC1CCCCC1 , state its recorded PAR-2 AP2 Signaling Treated/Control. 0.46

Name the recorded PAR-2 AP2 Signaling Treated/Control for NCCCCCCNC(=O)c1cc(CNC(=O)CC2CCCCC2)on1 . 0.52

Sample NCCCNC(=O)c1ccc(OCC2CCCCC2)cc1 — what was its PAR-2 AP2 Signaling Treated/Control? 0.45

May I ask what PAR-2 AP2 Signaling Treated/Control has been recorded for NCCCCCCNC(=O)c1cc(NC(=O)CC2CCCCC2)[nH]n1 ? 0.66

# input compound: NCCCCC(=O)Nc1ccc(C(=O)NCC2CCCCC2)cc1 ; wanted: its PAR-2 AP2 Signaling Treated/Control 0.92

Return reported PAR-2 AP2 Signaling Treated/Control; argument: CC(C)CC(=O)N1CC2CN(C(=O)Cc3ccc(N)cc3)CC2C1 (centres unmarked) 0.83

PAR-2 AP2 Signaling Treated/Control lookup needed for CC(C)CCc1ccc(C(=O)NCCCCN)cc1 [ENMD-1552, N-(4-aminobutyl)-4-isopentyl-benzamide] , thanks. 0.10

Name the recorded PAR-2 AP2 Signaling Treated/Control for CC(C)CC(=O)NC1CN(C(=O)CCCCCN)C1 . 0.87

Item under review: CC(C)CNC(=O)Cc1csc(NC(=O)CCCCCN)n1 . Reported PAR-2 AP2 Signaling Treated/Control? 0.44

Fill in: PAR-2 AP2 Signaling Treated/Control of CC(C)CC(=O)N1CCN(C(=O)Cc2cnc[nH]2)CC1 [ENMD-1066, hydrochloride] is ___ 0.20

Please give the measured PAR-2 AP2 Signaling Treated/Control for this compound: Nc1ccc(CC(=O)N2CCN(C(=O)Cc3ccccc3)CC2)cc1 0.71

Look up PAR-2 AP2 Signaling Treated/Control for this compound: CCCC(=O)N1CCN(C(=O)CCCCCN)CC1 0.55

Reported PAR-2 AP2 Signaling Treated/Control, compound Br.CC(C)CC(=O)NCCNC(=O)CCCCCN : ____ 0.81

Quick one: PAR-2 AP2 Signaling Treated/Control for NCCCCNC(=O)c1ccc(NCC2CCCCC2)nc1 ? 0.48
